Where do these numbers come from? They come from patent US6451834B1.

Collected melting point values appear next to each entry.

[[record]]
molecule = "c1csc(-c2n[nH]c3c2CCc2ccccc2-3)c1 [Example 3]"
result = "206 to 208 °C"

[[record]]
molecule = "c1ccc2c(c1)Cc1c(-c3ccsc3)n[nH]c1-2 [Example 29]"
result = "219 to 220 °C"

[[record]]
molecule = "COc1ccc(-c2n[nH]c3c2Cc2ccccc2-3)cc1 [Example 6]"
result = "247 °C"


Form field: reported melting point of COc1ccc2c(c1)Cc1c(-c3cccs3)n[nH]c1-2 [Example 8]
212 to 214 °C

Form field: reported melting point of c1cncc(-c2n[nH]c3c2Cc2ccccc2-3)c1 [Example 1]
223 to 224 °C

* * *

- tested-system: KDR tyrosine kinase (Homo sapiens, UniProt P35968)
- Construct: KDR intra-cellular domain (aa789-1354); poly-His6 (N)
- Sequence (P35968 789-1354): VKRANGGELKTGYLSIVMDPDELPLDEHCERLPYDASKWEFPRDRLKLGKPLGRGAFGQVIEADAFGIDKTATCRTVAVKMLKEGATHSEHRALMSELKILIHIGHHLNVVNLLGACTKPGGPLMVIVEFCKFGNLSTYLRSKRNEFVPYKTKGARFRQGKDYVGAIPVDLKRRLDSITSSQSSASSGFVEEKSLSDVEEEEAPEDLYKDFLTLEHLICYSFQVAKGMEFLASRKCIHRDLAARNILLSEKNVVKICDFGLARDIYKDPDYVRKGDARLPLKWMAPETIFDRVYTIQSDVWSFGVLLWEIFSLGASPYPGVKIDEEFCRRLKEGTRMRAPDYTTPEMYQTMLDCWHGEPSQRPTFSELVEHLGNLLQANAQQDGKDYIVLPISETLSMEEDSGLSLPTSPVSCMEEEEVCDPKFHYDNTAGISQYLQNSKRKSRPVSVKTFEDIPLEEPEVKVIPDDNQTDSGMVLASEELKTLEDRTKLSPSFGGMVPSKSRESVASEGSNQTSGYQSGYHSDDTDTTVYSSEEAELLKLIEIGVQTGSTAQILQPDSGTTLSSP
- test: KDR in vitro ELISA
- condition-label: ATP 5 μM
outcome-measure: IC50

[[record]]
compound = "Cc1c2c(nn1-c1ccccc1)-c1ccccc1C2=O"
tested_system = "KDR tyrosine kinase (Homo sapiens, UniProt P35968)"
result = "> 100 µM"


Form field: reported IC50 of C1=NC(n2nc(-c3ccccc3)cc2-c2ccccc2)NC1 (centres unmarked)
> 100 µM

* * *

Collected melting point values appear next to each entry.

Answered examples (2):
[[record]]
compound = "c1coc(-c2n[nH]c3c2Cc2ccccc2-3)c1 [Example 9]"
result = "195 to 197 °C"

[[record]]
compound = "Cc1ccc(-c2n[nH]c3c2Cc2ccccc2-3)cc1 [Example 7]"
result = "267 to 269 °C"


Would you kindly look at the next entry?
Form field: reported melting point of COc1cccc(-c2n[nH]c3c2Cc2ccccc2-3)c1 [Example 5]
172 to 174 °C
